# tested-target: ER (Homo sapiens (Human), UniProt P03372)
# Sequence (P03372 whole entry): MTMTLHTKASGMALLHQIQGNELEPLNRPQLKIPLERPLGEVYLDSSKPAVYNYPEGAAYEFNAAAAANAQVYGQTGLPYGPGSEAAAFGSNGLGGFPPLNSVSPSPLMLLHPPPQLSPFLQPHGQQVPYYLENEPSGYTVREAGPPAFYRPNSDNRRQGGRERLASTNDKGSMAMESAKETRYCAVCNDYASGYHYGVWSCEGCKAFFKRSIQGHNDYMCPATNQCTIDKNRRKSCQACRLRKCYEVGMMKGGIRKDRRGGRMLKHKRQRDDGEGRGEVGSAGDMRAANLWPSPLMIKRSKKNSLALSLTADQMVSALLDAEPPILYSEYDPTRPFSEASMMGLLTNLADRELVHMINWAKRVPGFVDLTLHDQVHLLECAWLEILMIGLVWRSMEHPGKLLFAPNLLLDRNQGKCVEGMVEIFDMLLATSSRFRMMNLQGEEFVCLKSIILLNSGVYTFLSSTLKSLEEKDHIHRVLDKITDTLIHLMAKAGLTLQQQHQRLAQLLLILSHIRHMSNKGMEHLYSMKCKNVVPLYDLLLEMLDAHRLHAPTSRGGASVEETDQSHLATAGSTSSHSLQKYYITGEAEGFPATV
# protocol: Western blot analysis (Compounds B1-B278)
# Type: cell-based
# condition-label: ER degradation by traditional Western blot; DC50 classes
value-type: Traditional Western Degradation Potency

Solved cases below.
[
  {
    "compound": "C[C@@H]1Cc2c([nH]c3ccccc23)[C@@H](c2c(F)cc(N3CCC(CN4CCC(C(=O)N5Cc6cc7c(cc6C5)C(=O)N(C5CCC(=O)NC5=O)C7=O)CC4)CC3)cc2F)N1CC(F)F (stereo partly shown)",
    "Traditional Western Degradation Potency": "C (“C”: >100 nM)"
  },
  {
    "compound": "C[C@@H]1Cc2c([nH]c3ccccc23)[C@@H](c2c(F)cc(N3CC(C(=O)N4CCC(CN5Cc6cc7c(cc6C5)C(=O)N(C5CCC(=O)NC5=O)C7=O)CC4)C3)cc2F)N1CC(F)F (stereo partly shown) [Compound B210]",
    "Traditional Western Degradation Potency": "C (“C”: >100 nM)"
  },
  {
    "compound": "C[C@@H]1Cc2c([nH]c3ccccc23)[C@@H](c2c(F)cc(N3CCC(N4CCC(CN5Cc6cc7c(cc6C5)C(=O)N(C5CCC(=O)NC5=O)C7)CC4)CC3)cc2F)N1CC(F)F (stereo partly shown)",
    "Traditional Western Degradation Potency": "B (“B”: 10-100 nM)"
  },
  {
    "compound": "C[C@@H]1Cc2c([nH]c3ccccc23)[C@@H](c2c(F)cc(N3CCC(N4CC(CC(=O)N5Cc6cc7c(cc6C5)C(=O)N(C5CCC(=O)NC5=O)C7)C4)CC3)cc2F)N1CC(F)F (stereo partly shown)",
    "Traditional Western Degradation Potency": "B (“B”: 10-100 nM)"
  },
  {
    "compound": "C[C@@H]1Cc2c([nH]c3ccccc23)[C@@H](c2ccc(N3CCC4(CC3)CN(C(=O)CN3Cc5cc6c(cc5C3)C(=O)N(C3CCC(=O)NC3=O)C6=O)C4)cc2)N1CC(F)F (stereo partly shown)",
    "Traditional Western Degradation Potency": "B (“B”: 10-100 nM)"
  }
]

Ask: Field request: Traditional Western Degradation Potency | item: C[C@@H]1Cc2c([nH]c3ccccc23)[C@@H](c2c(F)cc(-c3ccc(C(=O)N4CCC(N5Cc6cc7c(cc6C5)C(=O)N(C5CCC(=O)NC5=O)C7=O)CC4)nc3)cc2F)N1CC(F)F (stereo partly shown)
Result: B (“B”: 10-100 nM)

Ask: Look at this compound and give its reported Traditional Western Degradation Potency. C[C@@H]1Cc2c([nH]c3ccccc23)[C@@H](c2c(F)cc(C3CCN(C[C@H]4CC[C@H](N5Cc6cc7c(cc6C5)C(=O)N(C5CCC(=O)NC5=O)C7=O)CC4)CC3)cc2F)N1CC(F)F (stereo partly shown) [Compound B96]
Result: C (“C”: >100 nM)

Ask: Which measured Traditional Western Degradation Potency value corresponds to C[C@@H]1Cc2c([nH]c3ccccc23)[C@@H](c2c(F)cc(N3CCC4(CCN(C(=O)CN5Cc6cc7c(cc6C5)C(=O)N(C5CCC(=O)NC5=O)C7)C4)CC3)cc2F)N1CC(F)F (stereo partly shown) ?
Result: A (“A”: <10 nM)

Ask: Return reported Traditional Western Degradation Potency; argument: C[C@@H]1Cc2c([nH]c3ccccc23)[C@@H](c2c(F)cc(N3CCC(CN4CCC(N5Cc6cc7c(cc6C5)C(=O)N(C5CCC(=O)NC5=O)C7=O)CC4)CC3)cc2F)N1CC(F)F (stereo partly shown)
Result: A (“A”: <10 nM)

Ask: Dear colleague, I am looking for the recorded Traditional Western Degradation Potency of the following compound: C[C@@H]1Cc2c([nH]c3ccccc23)[C@@H](c2c(F)cc(N3CC[C@@H](CN4CCC(C(=O)N5Cc6cc7c(cc6C5)C(=O)N(C5CCC(=O)NC5=O)C7=O)CC4)C3)cc2F)N1CC(F)F (stereo partly shown)
Result: A (“A”: <10 nM)

Ask: Endpoint output: Traditional Western Degradation Potency of C[C@@H]1Cc2c([nH]c3ccccc23)[C@@H](c2ccc(C3=CCC(C(=O)N4CCC(N5Cc6cc7c(cc6C5)C(=O)N(C5CCC(=O)NC5=O)C7=O)CC4)CC3)cc2F)N1CC(C)(F)F (stereo partly shown) . Value?
Result: C (“C”: >100 nM)

Ask: Which Traditional Western Degradation Potency value belongs to C[C@@H]1Cc2c([nH]c3ccccc23)[C@@H](c2c(F)cc(N3CCN(CCN4Cc5cc6c(cc5C4)C(=O)N(C4CCC(=O)NC4=O)C6)CC3)cc2F)N1CC(F)F (stereo partly shown) ?
Result: B (“B”: 10-100 nM)

Ask: I'd like to know its Traditional Western Degradation Potency. The compound in question is C[C@@H]1Cc2c([nH]c3ccccc23)[C@@H](c2ccc(N3CCC4(CCN(C(=O)CN5Cc6cc7c(cc6C5)C(=O)N(C5CCC(=O)NC5=O)C7=O)CC4)CC3)nc2)N1CC(F)F (stereo partly shown)
Result: B (“B”: 10-100 nM)

Ask: Traditional Western Degradation Potency for C[C@@H]1Cc2c([nH]c3ccccc23)[C@@H](c2c(F)cc(C3CCN(C[C@H]4CC[C@H](N5Cc6cc7c(cc6C5)C(=O)N(C5CCC(=O)NC5=O)C7=O)CC4)CC3)cc2F)N1CC(F)F (stereo partly shown) [Compound B95] ?
Result: C (“C”: >100 nM)

Ask: Requested field: Traditional Western Degradation Potency. Item: C[C@@H]1Cc2c([nH]c3ccccc23)[C@@H](c2c(F)cc(N3CC4(CC(C(=O)N5CCC(CN6Cc7cc8c(cc7C6)C(=O)N(C6CCC(=O)NC6=O)C8=O)CC5)C4)C3)cc2F)N1CC(F)F (stereo partly shown)
Result: A (“A”: <10 nM)

Ask: What does the record list as Traditional Western Degradation Potency for C[C@@H]1Cc2c([nH]c3ccccc23)[C@@H](c2c(F)cc(N3CCCC(CN4CCC(N5Cc6cc7c(cc6C5)C(=O)N(C5CCC(=O)NC5=O)C7=O)CC4)C3)cc2F)N1CC(F)F (stereo partly shown) ?
Result: B (“B”: 10-100 nM)

Ask: Reported Traditional Western Degradation Potency, compound C[C@@H]1Cc2c([nH]c3ccccc23)[C@@H](c2c(F)cc(C3CCC(CN4CCC(N5Cc6cc7c(cc6C5)C(=O)N(C5CCC(=O)NC5=O)C7=O)CC4)CC3)cc2F)N1CC(F)F (stereo partly shown) : ____
Result: C (“C”: >100 nM)

Ask: I am curious: what Traditional Western Degradation Potency value has been reported for C[C@@H]1Cc2c([nH]c3ccccc23)[C@@H](c2c(F)cc(C3CCC(C(=O)N4CCC(N5Cc6cc7c(cc6C5)C(=O)N(C5CCC(=O)NC5=O)C7)CC4)CC3)cc2F)N1CC(F)F (stereo partly shown) ?
Result: A (“A”: <10 nM)

Ask: Query: Traditional Western Degradation Potency; subject: C[C@@H]1Cc2c([nH]c3ccccc23)[C@@H](c2c(F)cc(N3CC4(CCN4CC(=O)N4Cc5cc6c(cc5C4)C(=O)N(C4CCC(=O)NC4=O)C6=O)C3)cc2F)N1CC(F)F (stereo partly shown)
Result: C (“C”: >100 nM)
